# System: PDLSCs
# Assay comment: Impedimetry (xCELLigence), concentration-response study
# Assay type: cell-based, human
# Test settings: Homo sapiens, 48 h, 48-h incubation, 0.5 normalized CI
Observed property: IC50 (µM)
Hi! Could you send only the number? It should be in µM, unit omitted.

In one line, give reported IC50 of the entry [H]/N=C(\N/C(=N/[H])NCCCCCCNC(=N)NC(=N)Nc1ccc(Cl)cc1)Nc1ccc(Cl)cc1 . 36.4

* * *

# Test system: PDLSCs
# Assay comment: WST-1 test, concentration-response study
# Format: cell-based, human
# Test settings: 48-h incubation, 50% viable cells
I'd be grateful if you could share measured IC50 for these entries.
Hi! Could you send only the number? It should be in µM, unit omitted.

In one line, give reported IC50 of the entry [H]/N=C(\N/C(=N/[H])NCCCCCCNC(=N)NC(=N)Nc1ccc(Cl)cc1)Nc1ccc(Cl)cc1 . 16.6

In one line, give reported IC50 of the entry [O][Cl+][O-] [ClO2, chlorine dioxide] . 638

In one line, give reported IC50 of the entry OO [H2O2, hydrogen peroxide] . 209
